# target-of-assay: T1, human interleukin 12 (p70 heterodimer of p35 and p40) (human, UniProt P29459 23-219; P29460 23-328)
# T1 construct: Recombinant human IL-12; also called hIL-12; IL-12
# T1 sequence (looked up) 1: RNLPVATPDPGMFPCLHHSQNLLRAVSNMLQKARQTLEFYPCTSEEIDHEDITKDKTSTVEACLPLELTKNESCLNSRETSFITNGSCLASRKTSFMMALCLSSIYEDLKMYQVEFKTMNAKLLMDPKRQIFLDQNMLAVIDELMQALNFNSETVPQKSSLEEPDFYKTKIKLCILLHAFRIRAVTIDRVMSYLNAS
# T1 sequence (looked up) 2: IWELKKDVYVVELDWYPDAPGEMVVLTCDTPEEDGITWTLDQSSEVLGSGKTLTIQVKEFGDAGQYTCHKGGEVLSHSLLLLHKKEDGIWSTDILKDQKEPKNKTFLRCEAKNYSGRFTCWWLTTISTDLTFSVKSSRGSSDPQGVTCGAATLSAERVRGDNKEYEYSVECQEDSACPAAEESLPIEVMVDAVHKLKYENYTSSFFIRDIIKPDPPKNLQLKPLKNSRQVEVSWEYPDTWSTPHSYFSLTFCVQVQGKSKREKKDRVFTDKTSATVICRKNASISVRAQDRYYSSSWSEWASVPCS
# assay-comment: SPR (BIAcore), off-rate
property-name: koff (s⁻¹)
Return type: number; implicit unit s⁻¹.

SEQ ID NO: 530 (Y61, T at L53) (antibody, V domains shown) VH: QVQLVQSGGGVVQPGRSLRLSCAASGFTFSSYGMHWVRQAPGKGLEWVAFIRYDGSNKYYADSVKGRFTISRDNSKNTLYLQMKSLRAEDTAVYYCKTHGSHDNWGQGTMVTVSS VL: SYVLTQPPSVSGTPGQRVTISCSGGRSNIGSNTVKWYQQLPGTAPKLLIYGNDTRPSGVPDRFSGSKSGTSASLAITGVQAEDEADYYCQSYDRGTHPALLFGTGTKVTVLG; 0.000834

Shifting focus to the binder that follows.
Assign koff to the following record: SEQ ID NO: 509 (Y61, S at L50) (antibody, V domains shown) VH: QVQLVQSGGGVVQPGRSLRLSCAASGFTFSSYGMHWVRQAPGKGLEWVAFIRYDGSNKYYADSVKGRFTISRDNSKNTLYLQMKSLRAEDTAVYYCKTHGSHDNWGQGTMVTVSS VL: SYVLTQPPSVSGTPGQRVTISCSGGRSNIGSNTVKWYQQLPGTAPKLLIYSNDQRPSGVPDRFSGSKSGTSASLAITGVQAEDEADYYCQSYDRGTHPALLFGTGTKVTVLG 0.000286
